From: patent US5358951A

- Tested on: vasopressor response of angiotensin II
- procedure.details: AII Challenge: antagonism of angiotensin II vasopressor response
- Type: in vivo
- reported.conditions: Rattus norvegicus, iv, 4 h, 3 mg/kg I.V.; AII 0.05 mcg/kg IV; 240 min post dose
value.kind: inhibition in vivo at 3 mg/kg (%)
Lab book: enter the figure in %, no units written.

>  <compound>
CCCCc1nc2ccc([C@]3(C)C[C@@H]4CCCCN4O3)cc2c(=O)n1Cc1ccc(-c2ccccc2-c2nnn[nH]2)cc1 (relative stereo)

>  <meas.value>
61

$$$$
>  <compound>
CCCCc1nc2ccc([C@@H]3C[C@H]4CCCCN4O3)cc2c(=O)n1Cc1ccc(-c2ccccc2-c2nnn[nH]2)cc1 (relative stereo)

>  <meas.value>
59

$$$$
>  <compound>
CCCCc1nc2ccc([C@@]3(C)C[C@@H]4CCCN4O3)cc2c(=O)n1Cc1ccc(-c2ccccc2-c2nnn[nH]2)cc1 (relative stereo)

>  <meas.value>
81

$$$$
>  <compound>
CCCCc1nc2ccc([C@]3(C)C[C@@H]4CCC(C)(C)N4O3)cc2c(=O)n1Cc1ccc(-c2ccccc2-c2nnn[nH]2)cc1 (relative stereo)

>  <meas.value>
83

$$$$
>  <compound>
CCCCc1nc2ccc(C3(C)CC4c5ccccc5CCN4O3)cc2c(=O)n1Cc1ccc(-c2ccccc2-c2nnn[nH]2)cc1 (centres unmarked)

>  <meas.value>
51

$$$$

Query: Quick one: inhibition in vivo at 3 mg/kg of CCCCc1nc2ccc([C@@H]3C[C@H]4c5ccccc5CCN4O3)cc2c(=O)n1Cc1ccc(-c2ccccc2-c2nnn[nH]2)cc1 (relative stereo) ?
Result: 64

Query: Same for CCCCc1nc2ccc([C@@]3(C)C[C@@H]4CCCCN4O3)cc2c(=O)n1Cc1ccc(-c2ccccc2-c2nnn[nH]2)cc1 (relative stereo)
Result: 85

Query: Same for CCCCc1nc2ccc([C@]3(C)C[C@@H]4CCCN4O3)cc2c(=O)n1Cc1ccc(-c2ccccc2-c2nnn[nH]2)cc1 (relative stereo)
Result: 46

====

Catalogue of compounds with associated inhibition in vivo at 5 mg/kg
- Test system: vasopressor response of angiotensin II
- procedure.details: AII Challenge: antagonism of angiotensin II vasopressor response
- Format: in vivo
- reported.conditions: Rattus norvegicus, po, 2 h, 5 mg/kg P.O.; AII 0.1 mcg/kg IV; 120 min post dose
Lab book: enter the figure in %, no units written.

Reference set, count: 2
>  <compound>
CCCCc1nc2ccc([C@@H]3C[C@H]4c5ccccc5CCN4O3)cc2c(=O)n1Cc1ccc(-c2ccccc2-c2nnn[nH]2)cc1 (relative stereo)

>  <inhibition in vivo at 5 mg/kg / %>
24

$$$$
>  <compound>
CCCCc1nc2ccc(C3ON4CCCC4C3C(=O)OCC)cc2c(=O)n1Cc1ccc(-c2ccccc2-c2nnn[nH]2)cc1 (stereo not shown)

>  <inhibition in vivo at 5 mg/kg / %>
-8

$$$$

Query: Quick one: inhibition in vivo at 5 mg/kg of CCCCc1nc2ccc(C3(C)CC4c5ccccc5CCN4O3)cc2c(=O)n1Cc1ccc(-c2ccccc2-c2nnn[nH]2)cc1 (stereo not shown) ?
Result: 45

Query: Same for CCCCc1nc2ccc([C@]3(C)C[C@@H]4CCCN4O3)cc2c(=O)n1Cc1ccc(-c2ccccc2-c2nnn[nH]2)cc1 (relative stereo)
Result: 60

Query: Same for CCCCc1nc2ccc([C@@H]3C[C@H]4CCC(C)(C)N4O3)cc2c(=O)n1Cc1ccc(-c2ccccc2-c2nnn[nH]2)cc1 (relative stereo)
Result: 36

Query: Same for CCCCc1nc2ccc([C@@]3(C)C[C@@H]4CCC(C)(C)N4O3)cc2c(=O)n1Cc1ccc(-c2ccccc2-c2nnn[nH]2)cc1 (relative stereo)
Result: 83

Query: Same for CCCCc1nc2ccc([C@@H]3C[C@H]4CCCN4O3)cc2c(=O)n1Cc1ccc(-c2ccccc2-c2nnn[nH]2)cc1 (racemic)
Result: 41
